# TESTED_SYSTEM: Thymidylate kinase (Mycobacterium tuberculosis, UniProt P9WKE1)
# Sequence (P9WKE1 whole entry): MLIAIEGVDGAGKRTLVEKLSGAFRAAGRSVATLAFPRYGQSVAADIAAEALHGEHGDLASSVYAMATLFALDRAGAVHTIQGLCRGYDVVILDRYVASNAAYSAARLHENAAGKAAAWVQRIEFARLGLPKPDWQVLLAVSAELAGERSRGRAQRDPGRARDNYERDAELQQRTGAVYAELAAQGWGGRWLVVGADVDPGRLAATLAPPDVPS
# ASSAY_DETAILS: Binding affinity towards mycobacterium tuberculosis thymidine monophosphate kinase
PROPERTY_MEASURED: pKi
pKi here: minus log base 10 of the concentration, concentration in moles per litre.

// query pKi value for entry `O=C(O)CCCc1ccc(Cn2cc(Br)c(=O)[nH]c2=O)cc1`
4.91

Sourced from ChEMBL document CHEMBL1144358
